# tested-target: GlcNAc(b1-3)Gal(b1-4)GlcNAc(b1-3)Gal(b1-4)GlcNAc(b1-3)Gal(b1-4)GlcNAc(b1-3)Gal(b1-4)GlcNAc(b1-2)Man(a1-3)[GlcNAc(b1-3)Gal(b1-4)GlcNAc(b1-3)Gal(b1-4)GlcNAc(b1-3)Gal(b1-4)GlcNAc(b1-3)Gal(b1-4)GlcNAc(b1-2)Man(a1-6)]Man(b1-4)GlcNAc(b1-4)GlcNAc
# method-description: glycan array binding signal (z-score within array); higher = stronger binding
# study-conditions: glycan notation: IUPAC condensed, linker removed
The full list was thinned out, with the strongest signals kept by preference.
A collection of binders and their measured glycan array binding signal (z-score)

# binder, glycan array binding signal (z-score)
data = [
    ("ArathEULS3 TAP (Arabidopsis thaliana) (protein) IDENLYFQGGSMDEKTTGWRGGHVVEGLAGELEQLRARLEHHPQGQREPGGGGSLEITSLYKKAGFMEHHHQHHRHHQRDDGEDDRQSFGVPPPHVDAPPQPHGLYQSQPHFDPYAPTPQAPAPYRSETQFEPHAPPPYRSEPYFETPAPPPSFGHVSHVGHQSPNESYPPEHHRYGGYQQPSNSLLESHGDHSGVTHVAHHSSNQPQSSSGVYHKPDENRLPDNLAGLAGRATVKVYSKAEPNYNLTIRDGKVILAPADPSDEAQHWYKDEKYSTKVKDADGHPCFALVNKATGEAMKHSVGATHPVHLIRYVPDKLDESVLWTESKDFGDGYRTIRMVNNTRLNVDAYHGDSKSGGVRDGTTIVLWDWNKGDNQLWKIFPF", 0.229),
    ("DC-ASGPR Long (Homo sapiens) (protein) MTRTYENFQYLENKVKVQGFKNGPLPLQSLLQRLRSGPCHLLLSLGLGLLLLVIICVVGFQNSKFQRDLVTLRTDFSNFTSNTVAEIQALTSQGSSLEETIASLKAEVEGFKQERQAGVSELQEHTTQKAHLGHCPHCPSVCVPVHSEMLLRVQQLVQDLKKLTCQVATLNNNASTEGTCCPVNWVEHQDSCYWFSHSGMSWAEAEKYCQLKNAHLVVINSREEQNFVQKYLGSAYTWMGLSDPEGAWKWVDGTDYATGFQNWKPGQPDDWQGHGLGGGEDCAHFHPDGGWNDDVCQRPYHWVCEAGLGQTSQESH", 0.068),
    ("B936 (Bifidobacterium sp) (protein) MKNWKKAIALVASAAALVSVAACGPSNAGGSSDSGKKTVGFVAVGPEGGFRTANEKDIQKAFEDAGFDLTYSPTQNNDQQKQIQAFNKFVNDEVDAIILSSTEDSGWDDSLKKAAEAEIPVFTVDRNVDVKDAEAKKAIVAHIGPSNVWCGEQAAEFVNKNFPDGANGFILEGPAGLSVVKDRGTGWGNKVASNVKVLESQSANWSTDEAKTVTAGLLDKYKSDNPQFIFAQNDEMGLGAAQAVDAAGLKGKVKIITIDGTKNALQALVDGDLSYVIEYNPIFGKETAQAVKDYLDGKTVEKDIEIESKTFDAASAKEALDNNTRAY", -0.371),
    ("Jacalin (Artocarpus integrifolia) (protein) MAYSSLLSLSVLALLFSISSADTRKWFLANGINQNPIGIIEAAVGVSEDLLNLNGMEAKNDEQSGISQTVIVGPWGAKVSTSSNGKAFDDGAFTGIREINLSYNKETAIGDFQVVYDLNGSPYVGQNHKSFITGFTPVKISLDFPSEYIMEVSGYTGNVSGYVVVRSLTFKTNKKTYGPYGVTSGTPFNLPIENGLIVGFKGSIGYWLDYFSMYLSL", 4.05),
]
